- assay_info: MM1S cell viability effects, profiling panel, calcein-AM fluorescence, 48 h, basal (AID 1165);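 note: viability of MM1S multiple myeloma cells under basal unstimulated conditions; test concentration not given here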
- condition_parameters: higher = more signal
readout_name: z-score
// print number alone

Given item `CC#CC(=O)Oc1ccccc1C=CC(=O)OCC` , the value recorded as its z-score is -3.27

Memo: `CC(C)C[C@@H]1NC(=O)[C@@H]2C[C@H](C(=O)NCc3ccc(F)cc3)[C@H](c3cccc(OCCO)c3)N2C1=O` , reported z-score: 1.04

Just so you know, measured z-score for `CC(C)[Si]1(C(C)C)O[C@@H](c2ccccc2)c2cc(-c3ccc(-c4ccc(Cl)c(Cl)c4)o3)nc(-c3ccccc3)c21` came out at -2.62

Summary for this molecule, `C=CCN1C(=O)[C@]2(O[C@H](CCn3cc([C@H](O)c4ccccc4)nn3)[C@@H]([Si](C)(C)c3ccc(OC)cc3)[C@@H]2C)c2cc(N3CCC3=O)ccc21` : z-score is -2.05

So for `COCCOC(=O)N1C(=O)[C@@]2(c3cc(C#CCCO)ccc31)[C@H](C(N)=O)[C@H]1C(=O)O[C@H](c3ccccc3)[C@H](c3ccccc3)N1[C@@H]2c1ccc(O)cc1` , the logged z-score turned out to be 0.0119

What the record says about `C=CCOC(=O)[C@H]1[C@@H]2C(=O)O[C@@H](c3ccccc3)[C@@H](c3ccccc3)N2[C@@H](c2ccc(OCCOC(=O)[C@H]3C[C@H]4C(=O)N[C@@H](CCCC[N+](C)(C)C)C(=O)N4[C@H]3c3ccc(O)cc3)cc2)[C@]12C(=O)Nc1ccc(I)cc12` : z-score is -0.233

These entries and their values trace back to PubChem BioAssay.
